Below, each of the compounds is paired with its reported inhibition value.
# MEASUREMENT_NOTES: M. tuberculosis growth inhibition, HTS (AID 1259417);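 note: bacteria grown with compound for 5 days at 37 °C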
# EXPERIMENTAL_SETUP: M. tuberculosis DsRed fluorescence growth inhibition; stronger effect = higher value; concentration not given here
The whole screen tested about 1,100 compounds, of which about 760 (69%) were called active. So high a share suggests a set chosen from earlier hits. This is one part of the list.
Kindly provide the numeric value in % only, without the unit symbol.

Take a look at these entries with their results.
Task: Using the record for O=C(Nc1ccc(C(F)(F)F)cc1)Nc1cccc(Cl)c1 , report its inhibition.
Result: 99.7

Task: Same thing, different compound: COC(=O)COc1ccc2c(-c3ccc(OC)cc3)cc(=O)oc2c1
Result: 97.7

Task: Moving on to the next compound: COC(=O)c1ccc(N2C(=O)CC(N(CCc3ccccc3)C(=S)Nc3ccccc3)C2=O)cc1 (stereo unspecified)
Result: 2.64

API: the following record is the query input.
Task: Give the measured inhibition of CCOC(=O)COc1ccc2c(=O)c(-c3ccccc3OC)coc2c1 .
Result: 10.9

* * *

# MEASUREMENT_NOTES: M. tuberculosis growth inhibition, HTS (AID 1259417);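 note: bacteria grown with compound for 5 days at 37 °C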
# EXPERIMENTAL_SETUP: M. tuberculosis growth inhibition; stronger effect = higher value; concentration not given here
About 760 (69%) of roughly 1,100 compounds were called active. So high a share suggests a set chosen from earlier hits. The list shows a part of the results.
REPORTED_ENDPOINT: inhibition (%)
A number alone suffices; assume %.

Task: What does the record list as inhibition for CC(=O)N1CCN(c2ccc(NC(=S)NC(=O)c3cc4ccccc4o3)cc2)CC1 ?
Result: -6.94

Task: Field entry: C=CCc1cc(C)ccc1OCCCCn1ccnc1
Result: 100

Task: Would you mind doing CC1CC(C)CN(C(=O)COC(=O)c2cc3ccccc3cc2O)C1 (stereo unspecified) as well?
Result: 90.7

Further cases:
Task: // returns reported inhibition for input CC(=O)Oc1cccc2ccc(C=Cc3ccc(F)cc3)nc12
Result: 89.9

Task: Also check C=CCc1cc(C)ccc1OCCCn1ccnc1
Result: 97.1

Task: Consider next the molecule COC(=O)c1ccc(N2C(=O)CC(N(CCc3ccccc3)C(=S)Nc3ccccc3)C2=O)cc1 (stereo unspecified) in the same way.
Result: -9.4

Task: Next: Cc1coc2c1C(=O)C(=O)c1c-2ccc2c1CCCC2(C)C
Result: 98.4

Task: What do you get for CCc1cccc2c(C(=O)COC(=O)c3ccc([N+](=O)[O-])s3)c[nH]c12 ?
Result: 95.3

Task: Entry CCOC(=O)C(Oc1ccc2oc(C)c(C(=O)OC)c2c1)c1ccccc1 (stereo unspecified) please
Result: -19.6

Task: Same question, CC1CC(C)CN(C(=O)Nc2ccc(Cl)c(Cl)c2)C1 (stereo unspecified) this time
Result: 2.73

Task: # iterate: CCC1CCCCN1C(=O)COC(=O)c1cc2ccccc2cc1O (stereo unspecified)
Result: 89

* * *

# MEASUREMENT_NOTES: M. tuberculosis growth inhibition, HTS (AID 1259417);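 note: bacteria grown with compound for 5 days at 37 °C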
# EXPERIMENTAL_SETUP: M. tuberculosis growth inhibition; stronger effect = higher value; concentration not given here
The whole screen tested about 1,100 compounds, of which about 760 (69%) were called active. The set was probably picked from earlier hits. Some of the results follow.
Would you mind sorting the entries by inhibition according to these classes? lower = under 30%, middle = from 30% up to 80%, upper = 80% and over

Task: State the class of the molecule shown: O=C(c1cccc([N+](=O)[O-])c1)N1N=C(c2ccc(Br)cc2)CC1(O)C(F)(F)F (stereo unspecified)
Result: lower

Task: Same question, Cc1ccc(Nc2ccc(-n3ccnc3)nn2)cc1Cl this time
Result: lower

Task: Same thing, different molecule: CCOC(=O)COc1c(Cl)cc(C=C(C#N)c2nc3ccc(OC)cc3[nH]2)cc1Cl
Result: middle

Task: // repeat for COc1cccc(N2CCN(Cc3nc(N)nc(Nc4ccc(C)c(Cl)c4)n3)CC2)c1 and report
Result: lower

Task: COc1cccc(N2CCN(Cc3nc(N)nc(Nc4ccc(C)c(C)c4)n3)CC2)c1 , same question.
Result: middle

Task: What about this molecule? CN(c1ccccc1)c1nc(N2CCCC2)nc(-n2ccnc2)n1
Result: middle

Task: Cool, now CCOC(=O)Cn1cc(C=C(C#N)c2nc3ccc(OC)cc3[nH]2)c2ccccc21
Result: lower
